Biological target: T1, Anti-CD28 Fab (SEQ ID NOs: 696, 697)
T1 construct: In the phage ELISA the Fab was biotinylated and captured on neutravidin coated plates
T1 sequence (VH, as listed by the source, chain 1 of 2): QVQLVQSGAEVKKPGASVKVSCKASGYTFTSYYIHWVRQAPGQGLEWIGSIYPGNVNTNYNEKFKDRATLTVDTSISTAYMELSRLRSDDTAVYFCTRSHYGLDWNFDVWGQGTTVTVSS
T1 sequence (VL, as listed by the source, chain 2 of 2): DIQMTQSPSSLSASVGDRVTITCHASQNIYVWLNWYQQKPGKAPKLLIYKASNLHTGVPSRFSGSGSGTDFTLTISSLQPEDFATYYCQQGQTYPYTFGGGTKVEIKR
Assay: phage ELISA as above with wells pre-incubated with CD28 antigen as competitor
Property: Anti-CD28 Fab signal in the presence of CD28 (phage binding ELISA)

- Binder: "YCQGHIEPYLAKCL (Tested as clonal phage supernatant) [Phage-1036]"
  Readout value: 0.05
- Binder: "YCDGHAEEYMAKCL (Tested as clonal phage supernatant) [Phage-1038]"
  Readout value: 0.06
- Binder: "YCEGHAVEYMAKCL (Tested as clonal phage supernatant) [Phage-1043]"
  Readout value: 0.07
- Binder: "YCDGHSLQYMSKCL (Tested as clonal phage supernatant) [Phage-1039]"
  Readout value: 0.06
- Binder: "YCEGHLAIYQKKCL (Tested as clonal phage supernatant) [Phage-1042]"
  Readout value: 0.06
- Binder: "YCEGHLPIYMEKCL (Tested as clonal phage supernatant) [Phage-1044]"
  Readout value: 0.07
- Binder: "YCEGHSQEYMAKCL (Tested as clonal phage supernatant) [Phage-1046]"
  Readout value: 0.06
- Binder: "YCDGHLPEYMNQCL (Tested as clonal phage supernatant) [Phage-1047]"
  Readout value: 0.07
- Binder: "YCEGHSMEYIQKCL (Tested as clonal phage supernatant) [Phage-1045]"
  Readout value: 0.07
- Binder: "YCDGHLAIYMWKCL (Tested as clonal phage supernatant) [Phage-1037]"
  Readout value: 0.09
- Binder: "YCAGHLPQYIQKCL (Tested as clonal phage supernatant) [Phage-1041]"
  Readout value: 0.07
- Binder: "YCDGHNFQYMEKCL (Tested as clonal phage supernatant) [Phage-1048]"
  Readout value: 0.06
- Binder: "YCEGHLPQYMTKCI (Tested as clonal phage supernatant) [Phage-1040]"
  Readout value: 0.08
